experimental-system: feline FcRn (FCN-F82W3, Acrobiosystems) (feline)
measurement-protocol: SPR Carterra, IgG coupled, pH 6.0
Catalogue of kon readings, one per entry.
Kindly answer with a numeric value in M⁻¹ s⁻¹, unit omitted.

>>> numeric_value("anti-NGF feline IgG1a, Fc variant S434Y, T289K (antibody, part only; not given: Anti-NGF variable domains, not shown: another chain or arm of the molecule; small tags and cut ends) Fc: PPEMLGGPSIFIFPPKPKDTLSISRTPEVTCLVVDLGPDDSDVQITWFVDNTQVYTAKKSPREEQFNSTYRVVSVLPILHQDWLKGKEFKCKVNSKSLPSPIERTISKAKGQPHEPQVYVLPPAQEELSRNKVSVTCLIKSFHPPDIAVEWEITGQPEPENNYRTTPPQLDSDGTYFVYSKLSVDRSHWQRGNTYTCSVSHEALHYHHTQKSLTQSPGK")
"1.53e+06"
>>> numeric_value("anti-NGF feline IgG1a, Fc variant S252Y, Q311R (antibody, part only; not given: anti-NGF variable domains, not shown: another chain or arm of the molecule; small tags and cut ends) Fc: PPEMLGGPSIFIFPPKPKDTLYISRTPEVTCLVVDLGPDDSDVQITWFVDNTQVYTAKTSPREEQFNSTYRVVSVLPILHRDWLKGKEFKCKVNSKSLPSPIERTISKAKGQPHEPQVYVLPPAQEELSRNKVSVTCLIKSFHPPDIAVEWEITGQPEPENNYRTTPPQLDSDGTYFVYSKLSVDRSHWQRGNTYTCSVSHEALHSHHTQKSLTQSPGK")
926000

Now for another entry.
What does the data say about its kon? Entry: anti-NGF feline IgG1a, Fc variant K326D (antibody, part only; not given: anti-NGF variable domains, not shown: another chain or arm of the molecule; small tags and cut ends) Fc: PPEMLGGPSIFIFPPKPKDTLSISRTPEVTCLVVDLGPDDSDVQITWFVDNTQVYTAKTSPREEQFNSTYRVVSVLPILHQDWLKGKEFKCKVNSDSLPSPIERTISKAKGQPHEPQVYVLPPAQEELSRNKVSVTCLIKSFHPPDIAVEWEITGQPEPENNYRTTPPQLDSDGTYFVYSKLSVDRSHWQRGNTYTCSVSHEALHSHHTQKSLTQSPGK
428000
